experiment: in vivo; conditions: female, CD1, mouse, iv, 5 mg/kg
Description: Half-life in female CD1 mouse at 5 mg/kg, iv by LC/MS/MS analysis
A collection of compounds and their measured half-life
measure.name: half-life

[[record]]
mol_smiles = "CC(C)(N)C(=O)N1CCn2c(nc(-c3ccc(F)cc3)c2Nc2ccc(Cl)c(F)c2)C1"
result = "7.8 h"

[[record]]
mol_smiles = "CC(C)(N)C(=O)N1CCn2c(nc(-c3ccc(F)cc3)c2Nc2ccc(Cl)cc2)C1"
result = "8.7 h"

[[record]]
mol_smiles = "NCC(=O)N1CCn2c(nc(-c3ccc(F)cc3)c2Nc2ccc(F)cc2)C1"
result = "2.7 h"

[[record]]
mol_smiles = "NCC(=O)N1CCn2c(nc(-c3cccc(F)c3)c2Nc2ccc(F)cc2)C1"
result = "1.8 h"

